# Format: physicochemical, rat
# CONDITION_PARAMETERS: Freeze-thaw (three times), plasma QC 6.25 ng/mL
compounds and their reported Stability RE %
Number first, unit second.

>  <COMPOUND>
CCN1C[C@]2(COC)[C@H](O)C[C@H](OC)[C@@]34[C@@H]5C[C@@]6(O)[C@H](OC(=O)c7ccccc7)[C@@H]5[C@@](OC(C)=O)([C@@H]([C@H](OC)[C@H]23)[C@@H]14)[C@@H](O)[C@@H]6OC

>  <Stability RE %>
3.96%

$$$$
>  <COMPOUND>
COCC12CN(C)C3C4C(OC)C1C3(C(OC)CC2O)C1CC2(O)C(OC)C(O)C4(OC(C)=O)C1C2OC(=O)c1ccccc1 (stereo not shown)

>  <Stability RE %>
−1.29%

$$$$
>  <COMPOUND>
CCN1CC2(COC)C(O)CC(OC)C34C5CC6(O)C(OC)C(O)C(O)(C5C6OC(=O)c5ccccc5)C(C(OC)C23)C14 (stereo not shown)

>  <Stability RE %>
−6.91%

$$$$

Q: Quick one: Stability RE % of `COC[C@@]12CC[C@H](OC)[C@]34C(C([C@H](OC)[C@H]13)[C@]1(OC(C)=O)[C@H]3[C@@H](OC(=O)c5ccccc5)[C@](O)(C[C@H]34)[C@@H](OC)[C@@H]1O)N(C)C2` ?
Result: 0.31%
